- Test system: HMGA2-FL814 interaction
- protocol.text: PDI-ELISA for HMGA2 binding to DNA oligomer FL814
- Design: species or system mammalian
- test.settings: 100 nM compound, 100 nM FL814, 1 μM HMGA2, 2×SSCT; OD450 without drug 1.44
Starred links: 1 amine or outer side, 2 acyl side, 3 side chain; linkers in the order of their positions; H or OH if unused. Positions of bridges follow the written chain, without caps; N, C: chain ends. Non-standard residues stand in square brackets, D forms with d. Residues, ends and D or L forms follow the SMILES beside them. Chains are numbered I, II in the order given. Actinocin(9to1) = Cc1c2oc3c(C)ccc(C(=O)[*:1])c3nc-2c(C(=O)[*:2])c(N)c1=O; NMeV = CN[C@H](C(=O)O)C(C)C; Sar = CNCC(=O)O
assay.metric: OD450 of the PDI-ELISA in the presence of the compound
A bare number is all that is needed in reply.

Problem: Fill in the blank: the reported OD450 of the PDI-ELISA in the presence of the compound of Cc1c2oc3c(C)ccc(C(=O)N[C@@H]4C(=O)N[C@H](C(C)C)C(=O)N5CCC[C@H]5C(=O)N(C)CC(=O)N(C)[C@@H](C(C)C)C(=O)O[C@@H]4C)c3nc-2c(C(=O)N[C@@H]2C(=O)N[C@H](C(C)C)C(=O)N3CCC[C@H]3C(=O)N(C)CC(=O)N(C)[C@@H](C(C)C)C(=O)O[C@@H]2C)c(N)c1=O [Actinomycin D, actinomycin D] (I: T[dV]P[Sar][NMeV] / II: T[dV]P[Sar][NMeV]; ester I:1-I:C, II:1-II:C; linker I:N-II:N via Actinocin(9to1)) is ____.
Result: 1.03

###

- test.target: HMGA2-FL814 interaction
- protocol.text: PDI-ELISA for HMGA2 binding to DNA oligomer FL814
- Design: species or system mammalian
- test.settings: netropsin titration, FIG. 10B, 0.5 μM HMGA2; read-out: inhibitory IC50 of HMGA2 binding to FL814
pIC50: −log10 of the molar value. Where a name gives a salt, the structure may show the parent alone.
assay.metric: pIC50

Problem: Fill in the blank: the reported pIC50 of Cn1cc(NC(=O)c2cc(NC(=O)CN=C(N)N)cn2C)cc1C(=O)NCCC(=N)N [Netropsin, netropsin dihydrochloride] is ____.
Result: ~8.00

###

- System: HMGA2-FL814 interaction
- protocol.text: PDI-ELISA for HMGA2 binding to DNA oligomer FL814
- Design: species or system mammalian
- test.settings: 100 nM compound, 100 nM FL814, 1 μM HMGA2, 2×SSCT; OD450 without drug 1.44
Structures can show the parent of a compound that is named as a salt.
Parameter: OD450 of the PDI-ELISA in the presence of the compound. Scope: all listed entries.
A bare number is all that is needed in reply.

Check out these entries, answers already filled in.
| compound | measured.number |
| --- | --- |
| COc1cc2cc3c4cc(OC)c(OC)cc4cc[n+]3c(C)c2cc1OC.[Cl-] [Coralyne chloride, coralyne chloride] | 1.38 |
| CN1C(=Cc2cc[n+](C)c3ccccc23)Sc2ccccc21 | 1.83 |
| CC(=O)NCC(=O)O.CC(=O)NCC(=O)O.N=C(N)c1ccc(N=NNc2ccc(C(=N)N)cc2)cc1 | 0.52 |
| Cn1cc(NC(=O)c2cc(NC(=O)CN=C(N)N)cn2C)cc1C(=O)NCCC(=N)N [Netropsin, netropsin dihydrochloride] | 0.152 |
| COc1cccc2c1C(=O)c1c(O)c3c(c(O)c1C2=O)C[C@@](O)(C(C)=O)C[C@@H]3O[C@H]1C[C@H](NCc2ccc(CN[C@H]3C[C@H](O[C@H]4C[C@](O)(C(C)=O)Cc5c(O)c6c(c(O)c54)C(=O)c4c(OC)cccc4C6=O)O[C@@H](C)[C@H]3O)cc2)[C@H](O)[C@H](C)O1 | 0.21 |
| Cl.NCc1ccc2ccc3cccc4ccc1c2c34 [1-Pyrenemethylamine hydrochloride, 1-pyrenemethylamine hydrochloride] | 1.36 |

Proceed to the following item.
Problem: Form: Entry = O=c1cc(-c2ccccc2)oc2c1ccc1ccccc12 | System = HMGA2-FL814 interaction | OD450 of the PDI-ELISA in the presence of the compound = ____
Result: 1.91

###

- test.target: HMGA2-FL814 interaction
- protocol.text: PDI-ELISA for HMGA2 binding to DNA oligomer FL814
- Set-up: species or system mammalian
- test.settings: 25° C.; read-out: IC50 for inhibition of binding of HMGA2 to DNA
assay.metric: IC50 (µM)
Your answer should be a plain number; it is taken to be in µM.

Check out these entries, answers already filled in.
| compound.string | test.target | unit.label | IC50 |
| --- | --- | --- | --- |
| COc1cccc2c1C(=O)c1c(O)c3c(c(O)c1C2=O)C[C@@](O)(C(C)=O)C[C@@H]3O[C@H]1C[C@H](NCc2ccc(CN[C@H]3C[C@H](O[C@H]4C[C@](O)(C(C)=O)Cc5c(O)c6c(c(O)c54)C(=O)c4c(OC)cccc4C6=O)O[C@@H](C)[C@H]3O)cc2)[C@H](O)[C@H](C)O1 | HMGA2-FL814 interaction | µM | 0.041 |
| N=C(N)c1ccc(-c2cc3ccc(C(=N)N)cc3[nH]2)cc1 | HMGA2-FL814 interaction | µM | 0.0606 |
| COc1cccc2c1C(=O)c1c(O)c3c(c(O)c1C2=O)C[C@@](O)(C(C)=O)C[C@@H]3O[C@H]1C[C@H](NCc2cccc(CN[C@@H]3C[C@@H](O[C@H]4C[C@](O)(C(C)=O)Cc5c(O)c6c(c(O)c54)C(=O)c4c(OC)cccc4C6=O)O[C@H](C)[C@@H]3O)c2)[C@H](O)[C@H](C)O1 | HMGA2-FL814 interaction | µM | 0.115 |

Proceed to the following item.
Problem: Fill in the blank: the reported IC50 of CN1CCN(c2ccc3[nH]c(-c4ccc5[nH]c(-c6ccc(O)cc6)nc5c4)nc3c2)CC1 is ____.
Result: 0.073

###

- test.target: HMGA2-FL814 interaction
- protocol.text: PDI-ELISA for HMGA2 binding to DNA oligomer FL814
- Set-up: species or system mammalian
- test.settings: netropsin titration, FIG. 11B, three titration experiments; read-out: apparent inhibitory IC50 of HMGA2 binding to FL814
Structures can show the parent of a compound that is named as a salt.
assay.metric: IC50 (nM)
Your answer should be a plain number; it is taken to be in nM.

Problem: Form: Entry = Cn1cc(NC(=O)c2cc(NC(=O)CN=C(N)N)cn2C)cc1C(=O)NCCC(=N)N [Netropsin, netropsin dihydrochloride] | System = HMGA2-FL814 interaction | IC50 = ____
Result: 9.3

###

- Tested on: HMGA2-FL814 interaction
- protocol.text: PDI-ELISA for HMGA2 binding to DNA oligomer FL814
- Design: species or system mammalian
- test.settings: 100 nM compound, 100 nM FL814, 1 μM HMGA2, 2×SSCT; OD450 without drug 1.44
Counter-ions that a name gives are not always drawn.
I would appreciate it if you labelled entries Y when OD450 of the PDI-ELISA in the presence of the compound is 0.9 or higher, otherwise N.

Worked examples, 4 compounds total:
| compound | qualitative.label |
| --- | --- |
| CN(C)c1ccc(C(=C2C=CC(=[N+](C)C)C=C2)c2ccc([N+](C)(C)C)cc2)cc1.[Cl-].[Cl-] | Y |
| O=c1cc(-c2ccccc2)oc2ccc3ccccc3c12 | Y |
| O=C1c2ccc3c4ccc5c6c(ccc(c7ccc(c2c37)C(=O)N1CCN1CCCCC1)c64)C(=O)N(CCN1CCCCC1)C5=O | Y |
| Cc1c2ccncc2c(C)c2c1[nH]c1ccccc12 | Y |

Problem: Record N=C(N)c1ccc(OCCCCCOc2ccc(C(=N)N)cc2)cc1 [Pentamidine, pentamidine isethionate salt] ; criterion: OD450 of the PDI-ELISA in the presence of the compound no lower than 0.9. Met?
Result: N

Problem: Subsequent entry: CCN(CC)CCCC(C)Nc1c2ccc(Cl)cc2nc2ccc(OC)cc12 (stereo not shown) [Quinacrine dihydrochloride, quinacrine dihydrochloride]
Result: Y

Problem: Subsequent entry: COc1cccc2c1C(=O)c1c(O)c3c(c(O)c1C2=O)C[C@@](O)(C(C)=O)C[C@@H]3O[C@H]1C[C@H](NCc2cccc(CN[C@@H]3C[C@@H](O[C@H]4C[C@](O)(C(C)=O)Cc5c(O)c6c(c(O)c54)C(=O)c4c(OC)cccc4C6=O)O[C@H](C)[C@@H]3O)c2)[C@H](O)[C@H](C)O1
Result: N

Problem: Subsequent entry: Nc1ccc2cc3ccc(N)cc3nc2c1 [Proflavine hemisulfate, proflavine hemisulfate]
Result: Y

Problem: Subsequent entry: CCN1/C(=C/C=C/C=C/c2oc3ccccc3[n+]2CC)Oc2ccccc21.[I-]
Result: Y

Problem: Subsequent entry: COC1C(O)CC(OC2CC(Oc3cc4cc5c(c(O)c4c(O)c3C)C(=O)[C@@H](OC3CC(OC4CC(OC6CC(C)(O)C(OC(C)=O)C(C)O6)C(O)C(C)O4)C(O)C(C)O3)[C@H]([C@H](OC)C(=O)[C@@H](O)[C@@H](C)O)C5)OC(C)C2OC(C)=O)OC1C (stereo partly shown)
Result: Y

Problem: Subsequent entry: CN(C)c1ccc2nc3ccc(=[N+](C)C)cc-3sc2c1
Result: Y

Problem: Subsequent entry: N=C(N)c1ccc(-c2cc3ccc(C(=N)N)cc3[nH]2)cc1
Result: N

Problem: Subsequent entry: C[n+]1ccccc1-c1c2nc(c(-c3cccc[n+]3C)c3ccc([nH]3)c(-c3cccc[n+]3C)c3nc(c(-c4cccc[n+]4C)c4ccc1[nH]4)C=C3)C=C2.[Cl-].[Cl-].[Cl-].[Cl-]
Result: Y

Problem: Subsequent entry: CN1CCN(c2ccc3[nH]c(-c4ccc5[nH]c(-c6ccc(O)cc6)nc5c4)nc3c2)CC1
Result: N

The reported numbers originate from patent US20150253323A1.
